- Tested on: J774.A1
- ASSAY PROTOCOL: Cytotoxicity against mouse J774A.1 cells assessed as decrease in cell viability at 1 uM after 20 hrs by resazurin dye-based fluorimetric method
- CONDITION CONTEXT: j774.a1, 20 h
For each record, write down the corresponding Activity.
Please state the figure in %; there is no need to write the unit.

Prompt line: So what's the measured Activity for this one? CC(=O)Nc1ccccc1C(=O)C(=O)NNC(=O)c1ccncc1
Response line: 99.5

Prompt line: Follow-up entry: O=C(CCl)Nc1ccccc1C(=O)C(=O)NNC(=O)c1ccncc1
Response line: 96.5

Prompt line: Follow-up entry: CC(=O)Nc1ccc(C)cc1C(=O)C(=O)NNC(=O)c1ccncc1
Response line: 99.2

Prompt line: Follow-up entry: O=C(NNC(=O)c1ccncc1)C(=O)c1ccccc1NC(=O)c1ccccc1
Response line: 98.2

Prompt line: Follow-up entry: NNC(=O)c1ccncc1
Response line: 98.7

Cited source: ChEMBL document CHEMBL4196010
